Recorded PBM E-score, one value per entry.
Molecular target: Stp1 (UniProt B3LFK1)
Sequence: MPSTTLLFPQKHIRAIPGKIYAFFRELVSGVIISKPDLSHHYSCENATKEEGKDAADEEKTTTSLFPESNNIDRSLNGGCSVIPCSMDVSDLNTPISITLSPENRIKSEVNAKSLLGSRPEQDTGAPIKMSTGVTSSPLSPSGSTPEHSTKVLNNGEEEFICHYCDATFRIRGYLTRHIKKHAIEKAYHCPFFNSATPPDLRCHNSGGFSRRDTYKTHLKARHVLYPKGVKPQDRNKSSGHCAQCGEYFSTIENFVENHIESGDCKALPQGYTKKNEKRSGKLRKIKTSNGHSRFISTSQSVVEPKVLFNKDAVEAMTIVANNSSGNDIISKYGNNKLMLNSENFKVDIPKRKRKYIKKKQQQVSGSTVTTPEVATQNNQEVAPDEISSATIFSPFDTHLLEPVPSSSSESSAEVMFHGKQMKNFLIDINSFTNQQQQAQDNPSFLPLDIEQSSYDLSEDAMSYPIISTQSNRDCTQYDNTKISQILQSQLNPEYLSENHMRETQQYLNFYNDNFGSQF
Assay: PBM E-score (8-mer binding enrichment) (E-score (-0.5 to 0.5)); higher = stronger / more preferred TF binding
Settings: protein concentration: 200 nM; construct: GST-full length
Whole data set: some 33,000 sequences, median “E-score (-0.5 to 0.5)” near -0.016, cut for the highest 2% near 0.32. The full list was thinned out, with the highest values kept by preference.

Worked examples, 5 sequences total:
# MACROMOLECULE_SEQUENCE, OBSERVED_RESULT
data = [
    ("AGGGTCGC", 0.0437),
    ("CGGCATCA", 0.438),
    ("GGGGCCCC", -0.2),
    ("GACGCCAC", 0.0288),
    ("AAAGAACA", -0.0165),
]

Request: So what PBM E-score did `AAGAGCCA` get with Stp1 (UniProt B3LFK1)?
Response: 0.103

Request: So what PBM E-score did `GAAGGCAA` get with Stp1 (UniProt B3LFK1)?
Response: 0.218

Request: So what PBM E-score did `ACAGTCGG` get with Stp1 (UniProt B3LFK1)?
Response: -0.0418

Request: So what PBM E-score did `GACGGCAC` get with Stp1 (UniProt B3LFK1)?
Response: 0.453

Request: So what PBM E-score did `GTGGGCAA` get with Stp1 (UniProt B3LFK1)?
Response: -0.0572

Request: So what PBM E-score did `TAAATCAA` get with Stp1 (UniProt B3LFK1)?
Response: 0.0833

Request: So what PBM E-score did `AGTTCATG` get with Stp1 (UniProt B3LFK1)?
Response: 0.0464

Request: So what PBM E-score did `GGTGGTGA` get with Stp1 (UniProt B3LFK1)?
Response: -0.125

Request: So what PBM E-score did `CAGAGCCC` get with Stp1 (UniProt B3LFK1)?
Response: -0.0943

----------
Biological target: Stp1 (UniProt B3LFK1)
Sequence: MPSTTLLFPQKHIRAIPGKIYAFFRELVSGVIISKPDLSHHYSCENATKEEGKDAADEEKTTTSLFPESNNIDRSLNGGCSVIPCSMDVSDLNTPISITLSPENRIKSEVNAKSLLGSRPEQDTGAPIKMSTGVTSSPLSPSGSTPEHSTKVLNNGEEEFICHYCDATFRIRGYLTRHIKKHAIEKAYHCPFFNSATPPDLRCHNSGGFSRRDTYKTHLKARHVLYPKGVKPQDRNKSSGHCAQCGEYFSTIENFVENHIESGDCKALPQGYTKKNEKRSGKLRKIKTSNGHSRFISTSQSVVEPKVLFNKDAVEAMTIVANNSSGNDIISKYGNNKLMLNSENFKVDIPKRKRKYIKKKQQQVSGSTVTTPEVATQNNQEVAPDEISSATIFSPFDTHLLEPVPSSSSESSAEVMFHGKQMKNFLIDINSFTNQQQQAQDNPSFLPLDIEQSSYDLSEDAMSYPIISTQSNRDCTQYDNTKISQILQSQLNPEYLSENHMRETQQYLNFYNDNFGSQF
Assay: PBM E-score (8-mer binding enrichment) (E-score (-0.5 to 0.5)); higher = stronger / more preferred TF binding
Details: protein concentration: 200 nM; construct: GST-full length
Whole data set: some 33,000 sequences, median “E-score (-0.5 to 0.5)” near -0.016, cut for the highest 2% near 0.32. The sample holds the highest values, similar sequences and a random draw of the others, so the mix is not that of the screen.
Recorded PBM E-score, one value per entry.

Request: Would you kindly share the measured PBM E-score for `CGGCGAAA` ?
Response: 0.354

Request: Would you kindly share the measured PBM E-score for `AAAGGCGC` ?
Response: 0.402

Request: Would you kindly share the measured PBM E-score for `ACAACGAT` ?
Response: 0.00545

Request: Would you kindly share the measured PBM E-score for `CGAGGCAG` ?
Response: 0.12

Request: Would you kindly share the measured PBM E-score for `GGAGGCAC` ?
Response: 0.148
